Target: Glutaminase kidney isoform, mitochondrial (Homo sapiens)
Assay: qHTS for Inhibitors of Glutaminase (GLS): LOPAC Validation (AID 624146);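 note: glutamate product detected by oxidase and peroxidase coupled Amplex red fluorescence gain; % is set by controls: 0 for no effect and ±100 for the full control effect; nearly all actives have a fitted effect of over 60% in size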
Conditions: glutaminase enzyme activity inhibition; series mostly up to 46.1 µM
From the text: Glutaminase (GLS) catalyzes the hydrolysis of glutamine into glutamate and ammonia. It plays a critical role in glutaminolysis, which is an important energy source for proliferating cells. […] The overall goal of this project is to identify small molecule inhibitors of GLS through quantitative high throughput screening (qHTS) of the MLSMR. […]
Records with an inconclusive call do not appear. Activity calls are given as the source filed them. Calls come from the whole dose curve; as a rule, active = well fitted inhibition curve with a large enough effect; inconclusive = small, poorly fitted or top-dose-only effect; inactive = no such curve, though single readings can be large or run the other way.
PROPERTY: outcome

Example cases with answers are listed next.
> print(dat)
                                   molecule  property  reported.result
1                       O=C(O)CCCCCCCC(=O)O   outcome         inactive
2              CCCCNc1ccc(C(=O)OCCN(C)C)cc1   outcome         inactive
3                CNCCCN1c2ccccc2CCc2ccccc21   outcome         inactive
4  O=C(O)CN(CCN(CC(=O)O)CC(=O)O)CCN(CC(=O)O)CC(=O)O   outcome         inactive
5  CC(C)[N+](C)(CCOC(=O)C1c2ccccc2Oc2ccccc21)C(C)C   outcome         inactive

Proceeding to the next compound to report its outcome.
The measured outcome that CN/C(=C\[N+](=O)[O-])NCCSCc1ccc(CN(C)C)o1 showed for Glutaminase kidney isoform, mitochondrial (Homo sapiens) is inactive

====

tested on: DIV17; experiment: qHTS profiling for inhibitors of Plasmodium falciparum proliferation (AID 504749); note: nearly all actives have a fitted effect of over 60% in size; note: potency is the fitted concentration of half-maximal effect; conditions: P. falciparum in erythrocytes, SYBR Green DNA, 72 h; series mostly up to 28.7 µM
Results filed as inconclusive are left out. Calls of active or inactive are those of the source. Calls come from the whole dose curve; as a rule, active = well fitted inhibition curve with a large enough effect; inconclusive = small, poorly fitted or top-dose-only effect; inactive = flat fitted curve, though single readings scatter.
PROPERTY: Potency

> print(dat)
                                   compound  property   reported.result
1  NC1=NCC2c3ccccc3Cc3ccccc3N12 (stereo not drawn)   Potency  13.5 µM (active)
2  CCCN1C[C@H](CSC)C[C@@H]2c3cccc4[nH]cc(c34)C[C@H]21   Potency  7.57 µM (active)
3              CC1=NS(=O)(=O)c2cc(Cl)ccc2N1   Potency          inactive
4  CC(C(=O)O)c1ccc(CC2CCCC2=O)cc1 (stereo not drawn)   Potency          inactive
5    OCCN1CCN(CCCN2c3ccccc3C=Cc3ccccc32)CC1   Potency  1.69 µM (active)

Reported Potency for CCN(CC)CCNC(=O)c1ccc(NC(C)=O)cc1 was inactive

Reported Potency for OCCN1CCN(CC/C=C2/c3ccccc3Sc3ccc(C(F)(F)F)cc32)CC1 was 6.75 µM (active)

Reported Potency for CC(C)NNC(=O)c1ccncc1 was inactive

Reported Potency for CN1C[C@H](C(=O)N[C@]2(C)O[C@@]3(O)[C@@H]4CCCN4C(=O)[C@H](Cc4ccccc4)N3C2=O)C[C@@H]2c3cccc4[nH]cc(c34)C[C@H]21 was 0.426 µM (active)

====

target: Phosphoglycerate kinase, glycosomal (Trypanosoma brucei brucei) (UniProt P07378); assay: qHTS Validation Assay to Find Inhibitors of Phosphoglycerate Kinase (AID 504547); conditions: enzymatic PGK inhibition, coupled luminescence read-out; series mostly up to 57.5 µM;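 note: control wells lack PGK and mark full inhibition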
Sequence (P07378 whole entry, looked up): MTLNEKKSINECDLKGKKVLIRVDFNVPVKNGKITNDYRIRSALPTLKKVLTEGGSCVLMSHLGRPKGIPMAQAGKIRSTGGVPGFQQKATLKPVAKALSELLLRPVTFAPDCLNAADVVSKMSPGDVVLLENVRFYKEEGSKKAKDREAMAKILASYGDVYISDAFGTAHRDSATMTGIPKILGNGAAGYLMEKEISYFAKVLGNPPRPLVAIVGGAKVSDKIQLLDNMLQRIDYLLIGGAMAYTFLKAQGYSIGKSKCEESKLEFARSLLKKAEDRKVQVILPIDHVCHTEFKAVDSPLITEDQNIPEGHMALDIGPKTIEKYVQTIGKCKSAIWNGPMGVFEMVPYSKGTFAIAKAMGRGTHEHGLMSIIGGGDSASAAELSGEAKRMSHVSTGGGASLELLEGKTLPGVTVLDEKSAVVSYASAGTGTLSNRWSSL
Active and inactive are the calls of the source. Calls come from the whole dose curve; as a rule, active = well fitted inhibition curve with a large enough effect; inconclusive = small, poorly fitted or top-dose-only effect; inactive = flat fitted curve, though single readings scatter.
PROPERTY: outcome

> print(dat)
                                   molecule  reported.result
1  CO[C@@]1(NC(=O)CSCC#N)C(=O)N2C(C(=O)O)=C(CSc3nnnn3C)CS[C@@H]21         inactive
2  CCOC(=O)C1=C(C)NC(C)=C(C(=O)OC)C1c1cccc([N+](=O)[O-])c1 (configuration not stated)         inactive
3                CN(C)CCN(Cc1cccs1)c1ccccn1         inactive
4                CC(=O)Nc1nnc(S(N)(=O)=O)s1         inactive

Reported outcome for CC(C(=O)O)c1ccc(CC2CCCC2=O)cc1 (configuration not stated) was inactive

Reported outcome for Cc1ccc(=O)n(-c2ccccc2)c1 was inactive

Reported outcome for NC(Cc1ccc(Cl)cc1)C(=O)O (configuration not stated) was inactive

====

assay: qHTS Assay for Lipid Storage Modulators (AID 1519); conditions: Drosophila S3 cells, BODIPY lipid droplet/cell ratio, laser cytometry; at 25.7 µM (top of the series); cells loaded with oleic acid; note: % is set by controls: 0 for no effect and ±100 for the full control effect
Results filed as inconclusive are left out. Activity calls are given as the source filed them. The call rests on the fitted dose curve.
Recorded activity change, negative = inhibition, one value per entry.

Example cases with answers are listed next.
> print(dat)
                                  molecule                                property     reported.result
 1        CN(C)CC/C=C1\c2ccccc2COc2ccccc21  activity change, negative = inhibition    1.34% (inactive)
 2                    C[N+](C)(C)CCOC(N)=O  activity change, negative = inhibition    1.99% (inactive)
 3             NC(N)=NC(=O)Cc1c(Cl)cccc1Cl  activity change, negative = inhibition   -2.29% (inactive)
 4                 CC[N+](C)(C)c1cccc(O)c1  activity change, negative = inhibition       1% (inactive)
 5             CN(C)CCOC(=O)COc1ccc(Cl)cc1  activity change, negative = inhibition   0.143% (inactive)
 6  CN(C)CCCN1c2ccccc2Sc2ccc(C(F)(F)F)cc21  activity change, negative = inhibition   -1.52% (inactive)
 7            NC(=O)N1c2ccccc2C=Cc2ccccc21  activity change, negative = inhibition  -0.889% (inactive)
 8       CC(=O)Oc1cc(C(C)C)c(OCCN(C)C)cc1C  activity change, negative = inhibition  -0.785% (inactive)
 9       CCCCNc1c(C(=O)OCC)c(C)nc2c1cnn2CC  activity change, negative = inhibition   -0.42% (inactive)
10              CC(=O)Nc1nnc(S(N)(=O)=O)s1  activity change, negative = inhibition   -1.69% (inactive)

Reported activity change, negative = inhibition for CCn1nc(C(=O)O)c(=O)c2cc3c(cc21)OCO3 was 1.1% (inactive)

Reported activity change, negative = inhibition for O=C(CCNNC(=O)c1ccncc1)NCc1ccccc1 was -0.0465% (inactive)

Reported activity change, negative = inhibition for COc1cc(Cc2cnc(N)nc2N)cc(OC)c1OC was -1.74% (inactive)

Reported activity change, negative = inhibition for C#CCN(C)CCCOc1ccc(Cl)cc1Cl was -0.841% (inactive)

Reported activity change, negative = inhibition for CCN(CC)CC(=O)Nc1c(C)cccc1C was 0.593% (inactive)

Reported activity change, negative = inhibition for CCn1cc(C(=O)O)c(=O)c2cc3c(cc21)OCO3 was -1.05% (inactive)

Reported activity change, negative = inhibition for O=C(O)CN(CCN(CC(=O)O)CC(=O)O)CCN(CC(=O)O)CC(=O)O was -4.98% (inactive)

Reported activity change, negative = inhibition for CCCC(C(=O)OCCN(CC)CC)(c1ccccc1)c1ccccc1 was -1.67% (inactive)

Reported activity change, negative = inhibition for Cc1ccc(Cl)c(Nc2ccccc2C(=O)O)c1Cl was -1.03% (inactive)

Reported activity change, negative = inhibition for COc1ccc(CN(CCN(C)C)c2ccccn2)cc1 was 1.57% (inactive)

Reported activity change, negative = inhibition for CCO/C([O-])=N/c1c[n+](N2CCOCC2)no1 was -2.6% (inactive)

Reported activity change, negative = inhibition for COc1cc(C(=O)OCCCN2CCCN(CCCOC(=O)c3cc(OC)c(OC)c(OC)c3)CC2)cc(OC)c1OC was -0.679% (inactive)

====

Assay: qHTS assay for small molecule agonists of the antioxidant response element (ARE) signaling pathway (AID 651741); note: % of control where 0% means no effect
Conditions: HepG2 ARE-bla reporter, beta-lactamase FRET ratio, 16 h; series mostly up to 96 µM
From the text: National Center for Advancing Translational Sciences [NCATS] NIH Chemical Genomics Center [NCGC] U.S. Environmental Protection Agency [EPA] National Institutes of Environmental Health Sciences [NIEHS] National Toxicology Program [NTP] Oxidative stress has been implicated in the pathogenesis of a variety of diseases ranging from cancer to neurodegeneration. […] The activation of the report gene under culture conditions can be detected by fluorescence intensity. […]
Results filed as inconclusive are left out. Active and inactive are the calls of the source. Calls follow the shape of the dose curve; as a rule, active = well fitted activation curve with a large enough effect in the signal ratio; inconclusive = small, poorly fitted or top-dose-only effect, or effect the other way, or a change in a side signal; inactive = flat fitted curve, though single readings scatter; the % refers to the signal ratio.
PROPERTY: outcome

> print(dat)
                               molecule  reported.result
1          NC(=O)N1c2ccccc2C=Cc2ccccc21         inactive
2  Cc1ccc(S(=O)(=O)NC(=O)NN2CCCCCC2)cc1         inactive
3                   O=C(O)CCCCCCCC(=O)O         inactive
